Assayed system: FAAH (Mus musculus (Mouse), UniProt O08914)
Sequence (O08914 whole entry): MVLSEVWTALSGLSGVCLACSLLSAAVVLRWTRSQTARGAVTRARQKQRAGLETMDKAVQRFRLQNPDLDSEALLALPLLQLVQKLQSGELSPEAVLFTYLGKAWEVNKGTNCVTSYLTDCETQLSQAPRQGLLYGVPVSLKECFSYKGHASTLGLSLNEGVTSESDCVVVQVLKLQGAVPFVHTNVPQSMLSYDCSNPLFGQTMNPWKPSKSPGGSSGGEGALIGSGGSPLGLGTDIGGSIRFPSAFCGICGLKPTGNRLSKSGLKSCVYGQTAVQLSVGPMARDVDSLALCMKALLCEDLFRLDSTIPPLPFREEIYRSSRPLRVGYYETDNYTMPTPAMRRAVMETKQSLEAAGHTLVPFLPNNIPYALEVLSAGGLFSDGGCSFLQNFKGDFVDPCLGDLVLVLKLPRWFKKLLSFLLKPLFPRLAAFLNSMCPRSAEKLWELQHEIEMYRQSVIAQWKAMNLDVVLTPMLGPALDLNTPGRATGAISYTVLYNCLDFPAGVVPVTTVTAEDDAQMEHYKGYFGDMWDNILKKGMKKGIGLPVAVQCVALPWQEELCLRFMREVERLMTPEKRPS
Procedure details: In vitro competitive activity-based protein profiling, FAAH (mouse)
Assay type: biochemical
Test parameters: 1 μM, read-out: FAAH % inh. 1 μM (mouse)
Recorded endpoint: inhibition at 1 µM

Worked examples, 5 molecules total:
Molecule	inhibition at 1 µM
CC(=O)N(C)c1cnn(C(=O)N2CCC3(CCN(Cc4cccc(F)c4)C3)C2)c1 (stereo not drawn)	≥ 75%
CC(=O)N(C)c1cnn(C(=O)N2CCC3(CCN(Cc4cc(C(F)(F)F)ccc4Cl)C3)C2)c1 (stereo not drawn)	≥ 75%
CC(=O)N(C)c1cnn(C(=O)N2CCC3(CCN(Cc4ccc(-c5ccncn5)cc4Cl)C3)C2)c1 (stereo not drawn)	≥ 75%
CC(=O)N(C)c1cnn(C(=O)N2C[C@H]3C[C@@H](NCc4ccc(Cl)cc4)C[C@H]3C2)c1	≥ 75%
CC(=O)N(C)c1cnn(C(=O)N2CC3CN(Cc4ccc(C)cc4Cl)CC3C2)c1 (stereo not drawn)	≥ 75%

Task: Which measured inhibition at 1 µM value corresponds to CC(=O)N(C)c1cnn(C(=O)N2CC3CN(Cc4ccccc4F)CC3C2)c1 (stereo not drawn) ?
Result: ≥ 75%

Task: Please give the result for CC(=O)N(C)c1cnn(C(=O)N2C[C@H]3C[C@@H](N(C)Cc4ccc(N5C6CCC5COC6)c(C(F)(F)F)c4)C[C@H]3C2)c1 too.
Result: ≥ 75%

Task: Please give the result for CC(=O)N(C)c1cnn(C(=O)N2C[C@H]3C[C@H](N(Cc4cccc(Cl)c4)C(C)=O)C[C@H]3C2)c1 too.
Result: 0 to 25%

Task: Please give the result for CC(=O)N(C)c1cnn(C(=O)N2CCC3(CC2)CN(Cc2ccc(C)cc2)C3)c1 too.
Result: 25 to 50%

Task: Please give the result for CC(=O)N(C)c1cnn(C(=O)N2CCC3(CC2)CN(Cc2ccc(C(F)(F)F)cc2)C3)c1 too.
Result: ≥ 75%

Task: Please give the result for CC(=O)N(C)c1cnn(C(=O)N2C[C@H]3C[C@@H](N(C)Cc4cc(N5CCCC5)cc(C(F)(F)F)c4)C[C@H]3C2)c1 too.
Result: ≥ 75%

Task: Please give the result for CC(=O)N(C)c1cnn(C(=O)N2CCC3(CCN(Cc4ccc(N5CCCC5)c(Cl)c4)C3)C2)c1 (stereo not drawn) too.
Result: ≥ 75%

Task: Please give the result for CC(=O)N(C)c1cnn(C(=O)N2CCC3(CCN(Cc4ccc(CN5CCOCC5)cc4)C3)C2)c1 (stereo not drawn) too.
Result: 0 to 25%

Task: Please give the result for COc1ccc(CN2CC3(CCN(C(=O)n4cc(N(C)C(C)=O)cn4)CC3)C2)cc1 too.
Result: 25 to 50%

Task: Please give the result for CC(=O)N(C)c1cnn(C(=O)N2CC3CN(Cc4cccc(Oc5ccccn5)c4)CC3C2)c1 (stereo not drawn) too.
Result: ≥ 75%

Task: Please give the result for CC(=O)N(C)c1cnn(C(=O)N2CC3CN(Cc4ccc(OCc5ccccc5)cc4)CC3C2)c1 (stereo not drawn) too.
Result: ≥ 75%

Task: Please give the result for CC(=O)N(C)c1cnn(C(=O)N2CC3CN(Cc4ccc(N5CCOCC5)cc4Cl)CC3C2)c1 (stereo not drawn) too.
Result: ≥ 75%

Task: Please give the result for CC(=O)Nc1cnn(C(=O)N2CCC3(CCN(Cc4cc(Cl)cc(C(F)(F)F)c4)C3)CC2)c1 too.
Result: ≥ 75%

Task: Please give the result for CN(Cc1cc(Cl)ccc1C(F)(F)F)[C@H]1C[C@@H]2CN(C(=O)n3cc(NS(C)(=O)=O)cn3)C[C@@H]2C1 too.
Result: ≥ 75%

Task: Please give the result for CC(=O)N(C)c1cnn(C(=O)N2CCC3(CCN(Cc4cc(Cl)ccc4C(F)(F)F)C3)C2)c1 (stereo not drawn) too.
Result: ≥ 75%

Task: Please give the result for CC(=O)N(C)c1cnn(C(=O)N2CCC3(CC2)CN(Cc2ccc(N4CCCC4)cc2)C3)c1 too.
Result: 50 to 75%

---

Assayed system: UniProt:O35678
Procedure details: In vitro competitive activity-based protein profiling, MAGL (mouse)
Assay type: biochemical
Test parameters: 1 μM, read-out: MAGL % inh. 1 μM (mouse)
Known inhibition at 1 µM of a selection of compounds

Worked examples, 5 compounds total:
Compound	Assayed system	Recorded endpoint	Val
CC(=O)N(C)c1cnn(C(=O)N2C[C@H]3C[C@H](N(C)Cc4cc(N5CCCC5)cc(C(F)(F)F)c4)C[C@H]3C2)c1 [Example 160]	UniProt:O35678	inhibition at 1 µM	≥ 75%
CC(=O)N(C)c1cnn(C(=O)N2CCC3(CCN(Cc4ccccc4C)C3)C2)c1 (centres unmarked) [Example 54]	UniProt:O35678	inhibition at 1 µM	0 to 25%
CC(=O)N(C)c1cnn(C(=O)N2CC3(CCN(Cc4ccc(N5CCOCC5)cc4Cl)CC3)C2)c1 [Example 22]	UniProt:O35678	inhibition at 1 µM	25 to 50%
CC(=O)N(C)c1cnn(C(=O)N2CC3CN(Cc4ccc(N5CCOCC5)c(Cl)c4)CC3C2)c1 (centres unmarked) [Example 95]	UniProt:O35678	inhibition at 1 µM	≥ 75%
CC(=O)N(C)c1cnn(C(=O)N2CCC3(CCN(Cc4cc(Cl)cc(N5CCOCC5)c4)C3)C2)c1 (centres unmarked) [Example 63]	UniProt:O35678	inhibition at 1 µM	≥ 75%

Task: Which measured inhibition at 1 µM value corresponds to CC(=O)N(C)c1cnn(C(=O)N2CC3CN(Cc4ccc(N5CCOCC5)cc4C)CC3C2)c1 (centres unmarked) [Example 17] ?
Result: ≥ 75%

Task: Please give the result for CC(=O)N(C)c1cnn(C(=O)N2CCC3(CC2)CN(Cc2cccc(N4CCOCC4)c2)C3)c1 [Example 39] too.
Result: ≥ 75%

Task: Please give the result for CC(=O)N(C)c1cnn(C(=O)N2CCC3(CCN(Cc4ccc(C)cc4Cl)C3)C2)c1 (centres unmarked) [Example 55] too.
Result: ≥ 75%

---

Assayed system: MAGL (Mus musculus (Mouse))
Sequence (O35678 whole entry): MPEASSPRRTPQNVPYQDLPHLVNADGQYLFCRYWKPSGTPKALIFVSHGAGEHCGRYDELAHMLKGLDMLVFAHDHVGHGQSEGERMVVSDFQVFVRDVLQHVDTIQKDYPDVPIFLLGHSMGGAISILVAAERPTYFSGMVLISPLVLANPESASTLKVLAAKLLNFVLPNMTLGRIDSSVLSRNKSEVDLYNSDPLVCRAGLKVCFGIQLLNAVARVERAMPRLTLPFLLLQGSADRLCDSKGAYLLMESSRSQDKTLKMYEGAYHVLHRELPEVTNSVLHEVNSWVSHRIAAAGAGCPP
Procedure details: In vitro competitive activity-based protein profiling, MAGL (mouse)
Format: biochemical
Test parameters: 1 μM, read-out: MAGL % inh. 1 μM (mouse)
Known inhibition at 1 µM of a selection of compounds

Worked examples, 4 compounds total:
Compound	inhibition at 1 µM
CC(=O)N(C)c1cnn(C(=O)N2CC3(CCN(Cc4cccc(Oc5ccccc5)c4)CC3)C2)c1	50 to 75%
CC(=O)N(C)c1cnn(C(=O)N2CCC3(CC2)CN(Cc2ccc(C)cc2)C3)c1	≥ 75%
Cc1cc(-c2ccccc2)ccc1CN1CCN(C(=O)n2cc(NS(C)(=O)=O)cn2)CC1	≥ 75%
COc1ccccc1CN1CCN(C(=O)n2cc(N(C)C(C)=O)cn2)CC1	≥ 75%

Task: Recorded inhibition at 1 µM for CC(=O)N(C)c1cnn(C(=O)N2CC3(CCN(Cc4ccc(N5CCOCC5)cc4)CC3)C2)c1 with MAGL (Mus musculus (Mouse)), please?
Result: 0 to 25%

Task: Please give the result for CC(=O)N(C)c1cnn(C(=O)N2CC3CN(Cc4cc(Cl)cc(Cl)c4)CC3C2)c1 (stereo not shown) too.
Result: ≥ 75%

Task: Please give the result for COc1ccccc1CN1CCC2(CCN(C(=O)n3cc(N(C)C(C)=O)cn3)C2)C1 (stereo not shown) too.
Result: 0 to 25%

Task: Please give the result for CC(=O)N(C)c1cnn(C(=O)N2C[C@H]3C[C@@H](N(C)Cc4ccc(N5C6CCC5COC6)cc4C(F)(F)F)C[C@H]3C2)c1 too.
Result: ≥ 75%

Task: Please give the result for CC(=O)N(C)c1cnn(C(=O)N2CC3CN(Cc4cccc(Oc5cccc(Cl)c5)c4)CC3C2)c1 (stereo not shown) too.
Result: ≥ 75%

Task: Please give the result for CC(=O)N(C)c1cnn(C(=O)N2CC3CN(Cc4cc(Cl)cc(N5CCN(C6CC6)CC5)c4)CC3C2)c1 (stereo not shown) too.
Result: ≥ 75%

---

FAAH (Mus musculus (Mouse)): reported IC50 for various compounds.

Worked examples, 2 compounds total:
Compound	Recorded endpoint	Val
CC(=O)N(C)c1cnn(C(=O)N2CC3CN(Cc4cccc(Cl)c4)CC3C2)c1 (stereo not drawn) [Example 10]	IC50	100 to 1000 nM
CC(=O)N(C)c1cnn(C(=O)N2CC3CN(Cc4cccc(C(F)(F)F)c4)CC3C2)c1 (stereo not drawn) [Example 117]	IC50	≤ 100 nM

Here is another compound to look at.
Task: Which measured IC50 value corresponds to CC(=O)N(C)c1cnn(C(=O)N2CC3CN(Cc4ccc(C(F)(F)F)c(N5CCOCC5)c4)CC3C2)c1 (stereo not drawn) [Example 124] ?
Result: ≤ 100 nM

---

Assayed system: FAAH (Mus musculus (Mouse))
Procedure details: In vitro competitive activity-based protein profiling, FAAH (mouse)
Type: biochemical
Test parameters: 1 μM, read-out: FAAH % inh. 1 μM (mouse)
Recorded endpoint: inhibition at 1 µM

Worked examples, 4 compounds total:
Compound	inhibition at 1 µM
CC(=O)N(C)c1cnn(C(=O)N2CC3(CCN(Cc4ccc(C(F)(F)F)cc4)CC3)C2)c1	50 to 75%
CC(=O)N(C)c1cnn(C(=O)N2C[C@H]3C[C@H](N(C)Cc4cc(N5CCCC5)cc(C(F)(F)F)c4)C[C@H]3C2)c1	≥ 75%
CC(=O)N(C)c1cnn(C(=O)N2CC3CN(Cc4cccc(Cl)c4C)CC3C2)c1 (stereo not shown)	≥ 75%
COc1ccccc1CN1CC2(CCN(C(=O)n3cc(N(C)C(C)=O)cn3)CC2)C1	0 to 25%

Task: Which measured inhibition at 1 µM value corresponds to CC(=O)N(C)c1cnn(C(=O)N2CC3CN(Cc4cc(Cl)ccc4C(F)(F)F)CC3C2)c1 (stereo not shown) ?
Result: ≥ 75%

Task: Please give the result for CC(=O)N(C)c1cnn(C(=O)N2C[C@H]3C[C@@H](N(Cc4cccc(Cl)c4)C(C)=O)C[C@H]3C2)c1 too.
Result: 25 to 50%

Task: Please give the result for CC(=O)N(C)c1cnn(C(=O)N2CCC3(CC2)CN(Cc2ccccc2N2CCOCC2)C3)c1 too.
Result: 0 to 25%
